test_name: Toxicity studies of phenylalanine derivatives, oral, in female CD-1(ICR) mice
condition_label: mouse, in vivo, suspended in 0.5% CMC
Item-by-item account of LD50

# example entries with known answers
- molecule: "O=C(COc1ccc2ccccc2c1)N[C@@H](Cc1ccccc1)C(=O)O [Sample S-12, N-[(2-naphthoxy)acetyl]-L-phenylalanine]"
  measured: "> 4000 mg/kg"
- molecule: "O=C(C=Cc1ccccc1)N[C@@H](Cc1ccccc1)C(=O)O"
  measured: "> 2500 mg/kg"

// query Tell us which LD50 value is on record for O=C(N[C@H](Cc1ccccc1)C(=O)O)OCc1ccccc1
// result > 4000 mg/kg
